- PROTOCOL_SUMMARY: chemical genetic growth profiling, strain panel (AID 1159580);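 note: tested at 20 µM; growth read once vehicle control cultures reached saturation at 30 °C; 1 = growth at the plate median or of vehicle wells; lower values mean less growth of the strain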
- PROTOCOL_CONDITIONS: S. cerevisiae deletion strains, growth OD, locus YOR001W, strain rrp6, active compounds read low
Out of some 5,500 compounds screened, about 2,000 (36%) were called active. Not shown: some 18% with an inconclusive outcome. This is one part of the list.
MEASURE_NAME: normalized growth

// recorded normalized growth for NC/C=C/C(=O)O : 0.99 (inactive)

// recorded normalized growth for Cc1ccc2c(c1)CC[C@H]1CC(=O)CC[C@]21C : 0.981 (inactive)

// recorded normalized growth for COc1cccc2c1CCC1CC(=O)CCC21C (centres undefined) : 1.01 (inactive)

// recorded normalized growth for COc1ccc2c(c1)[C@@]1(C)CCC(=O)C[C@H]1CC2 : 0.97 (inactive)
